Recorded growth at 0.1 µM for the following molecules
Tested on: U-251
experimental_protocol: Antitumor activity against human U251 cells assessed as cell growth at 0.1 uM
Format: functional
protocol_conditions: read-out: Activity
test_readout: growth at 0.1 µM

> print(dat)
                                smiles.text  observed.value
1  c1ccc(CSc2ncccc2-c2nnc(SCCN3CCOCC3)o2)cc1            117%
2  O=C(CSc1nnc(-c2cccnc2SCc2ccccc2)o1)Nc1nc(Cl)cc(Cl)n1            106%
3  Cc1ccc2sc(-c3ccc(NC(=O)CSc4nnc(-c5cccnc5SCc5ccccc5)o4)cc3)nc2c1            106%
4  Cc1cnc(NC(=O)CSc2nnc(-c3cccnc3SCc3ccccc3)o2)s1           72.8%
5  CN1CCN(C(=O)CSc2nnc(-c3cccnc3SCc3ccccc3)o2)CC1           83.9%
6  COc1cc(OC)nc(NC(=O)CSc2nnc(-c3cccnc3SCc3ccccc3)o2)n1            106%
